tested on: S. cerevisiae Mot1-301 ts growth rescue, BacTiter-Glo ATP luminescence; assay: restored Mot1-301 yeast growth at 38.5C – whole organism, S. cerevisiae, Mot1-301 ts mutant, luminescence, dose retest, SUMOylation pathway inhibitor project, confirmation (AID 463204);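 note: growth at restrictive 38.5 degrees C of Mot1-301 OY566 strain; actives raise luminescence by restoring growth of the ts mutant at high temperature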
Active and inactive are the calls of the source.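 Rule for the calls: active = AC50 no more than ten times the top concentration tested, that is within one log above it; inconclusive = flat curve fit with activity between 30% and 70%, or invalid poor fit; inactive = AC50 beyond ten times the top tested dose.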
Pick one and only one: active, inactive

Molecule	Target of assay	Classification
Nc1nc(-c2ccc(Cl)cc2)nc(-c2ccc(Cl)cc2)n1	S. cerevisiae Mot1-301 ts growth rescue, BacTiter-Glo ATP luminescence	inactive
C[N+](C)(C)CC(=O)Nc1ccc(Cl)cc1C(=O)c1ccccc1	S. cerevisiae Mot1-301 ts growth rescue, BacTiter-Glo ATP luminescence	inactive
CCC(=O)N1c2ccc(S(=O)(=O)N3CCN(c4ccc([N+](=O)[O-])cc4)CC3)cc2CC1C (stereo unspecified)	S. cerevisiae Mot1-301 ts growth rescue, BacTiter-Glo ATP luminescence	inactive
CN(C)C1(c2nnnn2-c2ccc(Cl)cc2)CCCCC1	S. cerevisiae Mot1-301 ts growth rescue, BacTiter-Glo ATP luminescence	active
O=C(CSc1ncccn1)c1ccccc1Br	S. cerevisiae Mot1-301 ts growth rescue, BacTiter-Glo ATP luminescence	inactive

In the following, a different molecule is considered.
Exam item: // param item: OCCc1c[nH]c2cc(F)ccc12 ; yields the recorded call
Marked response: inactive

---

tested on: S. cerevisiae Mot1-301 ts growth rescue, BacTiter-Glo ATP luminescence; assay: restored Mot1-301 yeast growth at 38.5C – whole organism, S. cerevisiae, Mot1-301 ts mutant, luminescence, dose retest, SUMOylation pathway inhibitor project, confirmation (AID 463204);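 note: growth at restrictive 38.5 degrees C of Mot1-301 OY566 strain; actives raise luminescence by restoring growth of the ts mutant at high temperature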
Calls of active or inactive are those of the source.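 Rule for the calls: active = AC50 no more than ten times the top concentration tested, that is within one log above it; inconclusive = flat curve fit with activity between 30% and 70%, or invalid poor fit; inactive = AC50 beyond ten times the top tested dose.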
The reply should be one of these categories: 1.0 for active, 0.0 for inactive

Consider the worked cases shown below.
Compound	Classification
Cc1cc(C(F)(F)F)nc(SCC(=O)Nc2cc(C)on2)n1	0.0
CSc1ccc(CN2CCN(S(=O)(=O)Cc3ccccc3)CC2)cc1	0.0

Exam item: // outcome(item) with item = Clc1ccccc1-c1ccc2ncnc(NCc3cccs3)c2c1
Marked response: 1.0

Exam item: GET /call?item= CC[C@@H]1C/C=C\Cc2ccccc2[C@H](C(=O)C[C@@H](O)CC(C)=O)OC1=O returns the recorded outcome of this test.
Marked response: 1.0

Exam item: Returns: the outcome recorded for Cc1ccccc1Cn1cc(NC(=O)c2cc3nc(-c4ccco4)cc(C(F)(F)F)n3n2)cn1 in this assay.
Marked response: 0.0

Exam item: Please let me know the test result on file for O=C(CCS(=O)(=O)c1ccc(Br)s1)NCc1ccccc1 .
Marked response: 0.0

Exam item: What classification did O=S(=O)(c1ccccc1)N1CCN(c2nc3ccccc3s2)CC1 end up with in this test?
Marked response: 0.0

Exam item: Name the outcome recorded for O=C(Oc1ccccc1N1C(=O)C2CC=CCC2C1=O)c1ccc(Br)cc1 (centres undefined) in the assay.
Marked response: 0.0

Exam item: // return assay outcome for COc1ccc(C(=O)OCC(=O)c2ccc(C)c(S(=O)(=O)N3CCOCC3)c2)cc1OC
Marked response: 0.0

Exam item: Hi, do you know how COc1cc(CN2CCNC(=O)C2CC(=O)NCCc2ncccc2C)cc(OC)c1 (centres undefined) came out in this test?
Marked response: 0.0

---

tested on: S. cerevisiae Mot1-301 ts growth rescue, BacTiter-Glo ATP luminescence; experiment: restored Mot1-301 yeast growth at 38.5C – whole organism, S. cerevisiae, Mot1-301 ts mutant, luminescence, dose retest, SUMOylation pathway inhibitor project, confirmation (AID 463204);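 note: growth at restrictive 38.5 degrees C of Mot1-301 OY566 strain; actives raise luminescence by restoring growth of the ts mutant at high temperature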
Calls of active or inactive are those of the source.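 How the source made its calls: active means AC50 no more than ten times the top concentration tested, that is within one log above it; inconclusive means flat curve fit with activity between 30% and 70%, or invalid poor fit; inactive means AC50 beyond ten times the top tested dose.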
Valid outcomes are listed here; reply with one: true (1) = active, false (0) = inactive

Before answering, review these 10 worked examples.
Compound	Target of assay	Classification
CC1(C(=O)Nc2cccc(-n3cnnn3)c2)Cc2ccccc2C(=O)O1 (stereo not drawn)	S. cerevisiae Mot1-301 ts growth rescue, BacTiter-Glo ATP luminescence	false (0)
COc1cc2c(=O)n(CCC(=O)NCC3CCCO3)c(=O)n(CC(=O)Nc3ccccc3C)c2cc1OC (stereo not drawn)	S. cerevisiae Mot1-301 ts growth rescue, BacTiter-Glo ATP luminescence	false (0)
O=C(CC(c1ccccc1)c1ccccc1O)NCCN1CCOCC1 (stereo not drawn)	S. cerevisiae Mot1-301 ts growth rescue, BacTiter-Glo ATP luminescence	false (0)
CCCCNC(=O)N1CCC(CCC(=O)N(C)Cc2ccccc2)CC1	S. cerevisiae Mot1-301 ts growth rescue, BacTiter-Glo ATP luminescence	false (0)
CCc1cccc(C)c1NC(=O)CSc1nnc(-c2cc3cc(Br)ccc3o2)n1CC	S. cerevisiae Mot1-301 ts growth rescue, BacTiter-Glo ATP luminescence	false (0)
COc1ccc(-c2[nH]ncc2CNCCn2cccn2)c(F)c1	S. cerevisiae Mot1-301 ts growth rescue, BacTiter-Glo ATP luminescence	false (0)
CC(C)n1c(O)c(N=Nc2ccccn2)c2ccccc21	S. cerevisiae Mot1-301 ts growth rescue, BacTiter-Glo ATP luminescence	false (0)
Cc1cc(C)cc(N2C(=O)CC(Sc3ncn[nH]3)C2=O)c1 (stereo not drawn)	S. cerevisiae Mot1-301 ts growth rescue, BacTiter-Glo ATP luminescence	true (1)
CC(=O)Nc1cccc(NC(=S)Nc2ccc(F)cc2F)c1	S. cerevisiae Mot1-301 ts growth rescue, BacTiter-Glo ATP luminescence	false (0)
CCOC(=O)N1CCN(C(=O)c2ccccc2-c2ccccc2)CC1	S. cerevisiae Mot1-301 ts growth rescue, BacTiter-Glo ATP luminescence	false (0)

Exam item: Per the records of this test, what outcome belongs to COc1ccc(CN2C(=O)C(=O)N(CC(N)=O)C2=O)cc1 ?
Marked response: false (0)

Exam item: Call for entry CCn1cc(C(=O)N(C)c2ccc(OC)cc2OC)c2cc(OC)c(OC)cc2c1=O :
Marked response: false (0)

Exam item: Which outcome did this test record for the compound CN(C)/C=C/C(=O)c1ccncc1 ?
Marked response: false (0)

Exam item: Hi team, can someone confirm the assay call for O=C(CCn1cnnn1)Nc1ccc(Cl)cc1Cl ?
Marked response: false (0)

Exam item: I would be grateful if you could indicate the recorded call for Cc1cccc(C)c1NC(=O)C1(N(Cc2ccco2)C(=O)CC2NC(=O)NC2=O)CCCCC1 (stereo not drawn) .
Marked response: false (0)

Exam item: How did this test come out for C[C@H]1O[C@H]1P(=O)(O)O ?
Marked response: false (0)

Exam item: For CCn1c(SCc2nc3ccccc3[nH]2)nnc1-c1cccnc1 , what call appears in the results of this test?
Marked response: false (0)

Exam item: For this compound, state the assay outcome: c1coc(C2OCC3(CO2)COC(c2ccco2)OC3)c1 (stereo not drawn)
Marked response: false (0)

Exam item: Recorded call for CN(CC(=O)Nc1cccc(F)c1)CC(=O)Nc1cccc(S(N)(=O)=O)c1 ?
Marked response: false (0)

Exam item: # fetch the recorded call for O=C(O)c1cccc(N2C(=O)C3C4C=CC(C4=C(c4ccccc4)c4ccccc4)C3C2=O)c1 (stereo not drawn) here
Marked response: false (0)

Origin of measurements: PubChem BioAssay AID463204
